Test: self-splicing fitness, log relative to wild type (ln ratio); higher = more splicing; Tetrahymena group I intron in knt gene, E. coli kanamycin selection, DiMSum; sequences stand for … in CUCUCU…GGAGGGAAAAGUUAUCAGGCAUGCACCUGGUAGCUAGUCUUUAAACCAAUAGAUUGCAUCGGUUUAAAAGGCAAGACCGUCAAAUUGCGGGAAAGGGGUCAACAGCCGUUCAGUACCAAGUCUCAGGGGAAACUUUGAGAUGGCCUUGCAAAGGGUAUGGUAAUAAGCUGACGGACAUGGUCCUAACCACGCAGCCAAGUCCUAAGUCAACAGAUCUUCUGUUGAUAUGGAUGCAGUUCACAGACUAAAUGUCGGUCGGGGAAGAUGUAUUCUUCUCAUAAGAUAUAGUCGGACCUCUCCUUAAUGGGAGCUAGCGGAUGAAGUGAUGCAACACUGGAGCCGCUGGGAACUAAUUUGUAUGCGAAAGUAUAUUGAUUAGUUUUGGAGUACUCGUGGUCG;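 note: selection with 25 µg/mL kanamycin versus none on LB agar overnight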
Conditions: 37 °C
If the reported self-splicing fitness (ln) equals or exceeds -2, assign Criterion met. If not, assign Criterion not met.

- UUGUAGCAAUAUUACGUGCU: Criterion met
- AGUUAGCAAUAUUACGAAUU: Criterion met
- CCACAGCAAUAUUACGCCCA: Criterion not met
- CAAAAGCAAUAUUACGUCAA: Criterion not met
- CGCGAGCAAUAUUACGAACG: Criterion not met
- CAACAGCAAUAUUACGCAGC: Criterion not met
- AGCUAGCAAUAUUACGUGCG: Criterion met
- CGCUAGCAAUAUUACGUAGC: Criterion met
- UGCUAGCAAUAUUACGCAAA: Criterion met
- CGGGAGCAAUAUUACGAAAG: Criterion not met
- UUAGAGCAAUAUUACGUGAC: Criterion not met
- AGAGAGCAAUAUUACGCUGG: Criterion not met
- GAAGAGCAAUAUUACGCAUA: Criterion not met
- UAACAGCAAUAUUACGGGGA: Criterion not met
- UCUCAGCAAUAUUACGCAAA: Criterion met
- UGAGAGCAAUAUUACGGCGG: Criterion met
- AAAGAGCAAUAUUACGCCUA: Criterion met
- AUCUAGCAAUAUUACGCCCA: Criterion met
- CAUAAGCAAUAUUACGCGCG: Criterion met
- GCGUAGCAAUAUUACGACUC: Criterion met
- CCGAAGCAAUAUUACGAAGC: Criterion met
- GCAUAGCAAUAUUACGCGGA: Criterion met
- GGCAAGCAAUAUUACGGUGC: Criterion met
- UUUAAGCAAUAUUACGCGGU: Criterion met
- CCUCAGCAAUAUUACGAGCG: Criterion met
- UUGGAGCAAUAUUACGUAAG: Criterion met
- CUCUAGCAAUAUUACGUGUG: Criterion not met
- GCCCAGCAAUAUUACGACCA: Criterion met
- GCCCAGCAAUAUUACGGCGG: Criterion met
- ACAGAGCAAUAUUACGUCCU: Criterion met
- CAACAGCAAUAUUACGCCGU: Criterion not met
- GGCGAGCAAUAUUACGAUCA: Criterion met

###

Assay: self-splicing fitness, log relative to wild type (ln ratio); higher = more splicing; Tetrahymena group I intron in knt gene, E. coli kanamycin selection, DiMSum; sequences stand for … in CUCUCU…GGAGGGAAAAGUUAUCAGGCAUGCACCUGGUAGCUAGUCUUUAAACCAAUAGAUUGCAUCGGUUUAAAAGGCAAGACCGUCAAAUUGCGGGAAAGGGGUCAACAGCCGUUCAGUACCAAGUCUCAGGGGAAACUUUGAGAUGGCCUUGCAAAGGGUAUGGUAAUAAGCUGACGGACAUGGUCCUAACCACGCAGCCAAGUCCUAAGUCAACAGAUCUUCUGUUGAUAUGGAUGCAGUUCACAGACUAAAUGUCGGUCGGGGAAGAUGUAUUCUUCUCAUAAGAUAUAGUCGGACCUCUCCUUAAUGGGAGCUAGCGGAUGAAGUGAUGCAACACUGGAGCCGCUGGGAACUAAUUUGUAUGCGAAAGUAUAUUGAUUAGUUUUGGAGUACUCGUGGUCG
Details: 30 °C
If the reported self-splicing fitness (ln) equals or exceeds -3, assign fulfilled. If not, assign not fulfilled.

- AGGAAGCAAUAUUACGGACG: fulfilled
- ACCAAGCAAUAUUACGUUCA: fulfilled
- CGCGAGCAAUAUUACGUGCA: fulfilled
- AGCGAGCAAUAUUACGACCG: fulfilled
- UAGAAGCAAUAUUACGUAAA: fulfilled
- CCCUAGCAAUAUUACGGCCG: fulfilled
- ACACAGCAAUAUUACGAUCC: fulfilled
- ACAGAGCAAUAUUACGUGUA: not fulfilled
- CCCAAGCAAUAUUACGUCGU: not fulfilled
- UGUUAGCAAUAUUACGUACC: fulfilled
- UACCAGCAAUAUUACGUUAA: fulfilled
- ACCUAGCAAUAUUACGUAUA: fulfilled
- UUAGAGCAAUAUUACGCAAA: fulfilled
- CAUCAGCAAUAUUACGCAGG: fulfilled
- CGGUAGCAAUAUUACGGUGG: fulfilled
- UUCAAGCAAUAUUACGCUCA: fulfilled
- GGUGAGCAAUAUUACGGCCU: fulfilled
- CCAUAGCAAUAUUACGUUCU: not fulfilled
- UAAUAGCAAUAUUACGCUAA: fulfilled
- AAUAAGCAAUAUUACGAUCG: fulfilled
- CAUAAGCAAUAUUACGGCAU: not fulfilled
- CCAAAGCAAUAUUACGUCGA: not fulfilled
- UGUAAGCAAUAUUACGCGAG: not fulfilled
- GAUCAGCAAUAUUACGUCCU: fulfilled
- CAAAAGCAAUAUUACGUUGA: not fulfilled
- AGAGAGCAAUAUUACGUUGG: not fulfilled
- CGGUAGCAAUAUUACGUUGA: not fulfilled
- AUGAAGCAAUAUUACGCGUG: fulfilled
- AUAUAGCAAUAUUACGAUUC: fulfilled
- CUUCAGCAAUAUUACGCUAC: fulfilled
- UGGAAGCAAUAUUACGAUCA: fulfilled
- GACUAGCAAUAUUACGAGAC: not fulfilled
- CACUAGCAAUAUUACGAGCA: not fulfilled
- UGGUAGCAAUAUUACGCUCC: fulfilled
- UUGAAGCAAUAUUACGAUAA: fulfilled
- ACCCAGCAAUAUUACGCCGU: fulfilled
- UACAAGCAAUAUUACGGCCC: fulfilled
- UUCCAGCAAUAUUACGUAUC: fulfilled
- GUCAAGCAAUAUUACGAUAC: not fulfilled
- UCGUAGCAAUAUUACGAGAC: fulfilled
- AGCCAGCAAUAUUACGACCA: fulfilled
- UCAAAGCAAUAUUACGAUGC: fulfilled
- UUACAGCAAUAUUACGGCCU: fulfilled
- CGACAGCAAUAUUACGCCAG: fulfilled
- UGCGAGCAAUAUUACGGGAG: not fulfilled
- CAUGAGCAAUAUUACGAUUC: not fulfilled
- CUUAAGCAAUAUUACGCUAU: fulfilled
- CCUAAGCAAUAUUACGAGUA: fulfilled
- GGAGAGCAAUAUUACGGUUU: fulfilled
- CAAGAGCAAUAUUACGAGUG: fulfilled
- UAACAGCAAUAUUACGAGAA: fulfilled
- UCCUAGCAAUAUUACGGGUG: fulfilled
- AACAAGCAAUAUUACGUGAU: fulfilled
- UGGUAGCAAUAUUACGAGGA: fulfilled
- CCAAAGCAAUAUUACGAGGU: not fulfilled
- AAUGAGCAAUAUUACGUCCG: not fulfilled
- UAGAAGCAAUAUUACGAGAA: fulfilled
- UGAAAGCAAUAUUACGUGAA: fulfilled
- CUAUAGCAAUAUUACGACGA: fulfilled
- AGCUAGCAAUAUUACGAUAU: fulfilled
- GCAUAGCAAUAUUACGGACA: fulfilled
- CAGUAGCAAUAUUACGAAUG: fulfilled
- GUCGAGCAAUAUUACGUUUU: not fulfilled

###

Experiment: self-splicing fitness, log relative to wild type (ln ratio); higher = more splicing; Tetrahymena group I intron in knt gene, E. coli kanamycin selection, DiMSum; sequences stand for … in CUCUCU…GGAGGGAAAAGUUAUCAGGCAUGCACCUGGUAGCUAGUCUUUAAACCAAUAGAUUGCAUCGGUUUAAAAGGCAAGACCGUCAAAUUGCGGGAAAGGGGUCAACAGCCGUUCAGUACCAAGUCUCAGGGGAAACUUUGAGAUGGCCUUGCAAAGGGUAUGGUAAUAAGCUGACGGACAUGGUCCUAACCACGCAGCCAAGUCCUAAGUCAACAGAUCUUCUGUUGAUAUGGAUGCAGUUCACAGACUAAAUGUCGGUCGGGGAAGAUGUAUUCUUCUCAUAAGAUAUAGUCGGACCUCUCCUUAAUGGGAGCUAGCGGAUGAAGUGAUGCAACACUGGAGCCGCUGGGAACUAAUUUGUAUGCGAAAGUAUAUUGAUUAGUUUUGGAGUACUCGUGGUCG
Settings: 30 °C
Measured self-splicing fitness (ln) values are reported for all entries that follow.
measured.property: self-splicing fitness (ln)

- CGAAAGCAAUAUUACGUGCG: -1.22
- CAAGAGCAAUAUUACGAGCA: -2.85
- GUUCAGCAAUAUUACGUGGG: -2.07
- UGCGAGCAAUAUUACGUAUC: -1.76
- AACCAGCAAUAUUACGGCGA: -0.304
- GUCAAGCAAUAUUACGAACU: -2.42
- CCAUAGCAAUAUUACGUCUA: -4.41
- GCACAGCAAUAUUACGAACC: -0.135
- UCCCAGCAAUAUUACGAAUC: -2.49
- UAGGAGCAAUAUUACGCUCG: -1.49
- GGGAAGCAAUAUUACGGAUC: -0.0316
- UGAGAGCAAUAUUACGCCGG: -3.37
- GCACAGCAAUAUUACGGCCA: -1.84
- AGGGAGCAAUAUUACGCUGG: -4.26
- UGAAAGCAAUAUUACGCUAC: -3.01
- UAUAAGCAAUAUUACGGAAG: -2.72
